Reported log10 of solubility kinetic at 2 h values for a set of compounds
assay_info: Kinetic solubility of the compound at pH 7.4 after 2 hrs by shake flask method-based HPLC-DAD analysis
Assay type: physicochemical
run_parameters: buffer, read-out: Kinetic_solubility
Log scale reminder: solubility kinetic at 2 h in µM, then log10 taken.

Some compounds with recorded log10 of solubility kinetic at 2 h:
>>> experimental_value("Cc1cc(NCC2CCCCN2)n2nc(C)c(-c3ccccc3)c2n1 (stereo unspecified)")
2.28
>>> experimental_value("Cc1cc(NCc2ccccn2)n2ncc(-c3cccc(F)c3)c2n1")
0.70
>>> experimental_value("Cc1cc(NCc2cccnc2)n2nc(C)c(-c3ccccc3)c2n1")
2.04
>>> experimental_value("Cc1cc(NCc2ccccn2)n2ncc(Br)c2n1")
1.95
>>> experimental_value("Cc1cc(N(C)Cc2ccccn2)n2nc(C)c(-c3ccccc3)c2n1")
1.24
>>> experimental_value("Cc1cc(NCc2c[nH]cn2)n2nc(C)c(-c3ccccc3)c2n1")
1.16
>>> experimental_value("Cc1cc(NCc2ccccn2)n2ncc(-c3cncnc3)c2n1")
2.05
>>> experimental_value("Cc1cc(NCc2ccccn2)n2ncc(-c3cccc(N(C)C)c3)c2n1")
1.98
>>> experimental_value("Cc1cc(NCc2ccccn2)n2ncc(-c3ccsc3)c2n1")
0.95
>>> experimental_value("Cc1cc(NCc2ccccn2)n2ncc(-c3ccco3)c2n1")
1.69

Ask: Quick one: log10 of solubility kinetic at 2 h of Cc1cc(NCc2cccc[n+]2[O-])n2ncc(-c3ccccc3)c2n1 ?
Result: 2.20

Ask: Likewise for Cc1cc(NCc2nccn2C)n2nc(C)c(-c3ccccc3)c2n1 ?
Result: 1.43

Ask: Likewise for Cc1cc(NCc2ncccn2)n2nc(C)c(-c3ccccc3)c2n1 ?
Result: 1.58

====

Reported solubility kinetic at 2 h values for a set of compounds
assay_info: Kinetic solubility of the compound at pH 7.4 after 2 hrs by shake flask method-based HPLC-DAD analysis
Type: physicochemical
run_parameters: buffer, read-out: Kinetic_solubility

Some compounds with recorded solubility kinetic at 2 h:
>>> experimental_value("Cc1cc(NCc2ccccn2)n2ncc(-c3ccccc3)c2n1")
"< 5 µM"
>>> experimental_value("Cc1cc(NCc2ncc[nH]2)n2nc(C)c(-c3ccccc3)c2n1")
"< 5 µM"
>>> experimental_value("Cc1cc(NCc2cccs2)n2nc(C)c(-c3ccccc3)c2n1")
"< 5 µM"
>>> experimental_value("Cc1cc(NCc2ccccn2)n2nc(C)cc2n1")
"> 200 µM"
>>> experimental_value("Cc1cc(NCc2ccccn2)n2ncc(-c3c(C)cccc3C)c2n1")
"< 5 µM"
>>> experimental_value("Cc1cc(NCc2ccccn2)n2ncc(-c3cccc(Cl)c3)c2n1")
"< 5 µM"
>>> experimental_value("Cc1cc(NCc2ccccn2)n2ncc(-c3ccc(C#N)cc3)c2n1")
"< 5 µM"
>>> experimental_value("Cc1cc(NCc2ccccn2)n2ncc(-c3ccc(F)cc3F)c2n1")
"< 5 µM"
>>> experimental_value("Cc1cc(NCc2ccccn2)n2ncc(-c3ccc(N(C)C)cc3)c2n1")
"< 5 µM"
>>> experimental_value("Cc1cc(NCc2ccccn2)n2ncc(-c3ccc(F)cc3)c2n1")
"< 5 µM"

From here, focus on the item given below.
Ask: Quick one: solubility kinetic at 2 h of Cc1cc(Nc2ccccn2)n2nc(C)c(-c3ccccc3)c2n1 ?
Result: < 5 µM
